// data source = patent US5591714A

MIC overview
Tested on: Enterococcus faecalis 2041
Experimental Protocol: MIC, standard agar-dilution assay
Assay type: cell-based

Request: // returns reported MIC for input CNC(CC(C)C)C(=O)NC1C(=O)NC(CC(N)=O)C(=O)NC2C(=O)NC3C(=O)NC(C(=O)NC(C(=O)O)c4cc(O)cc(O)c4-c4cc3ccc4O)C(OC3CC(C)(N)C(O)C(C)O3)c3ccc(c(Cl)c3)Oc3cc2cc(c3OC2OC(CO)C(O)C(O)C2OC2CC(C)(NCC(c3ccccc3)c3ccccc3)C(O)C(C)O2)Oc2ccc(cc2Cl)C1O (stereo not drawn)
Result: .5 µg/mL

Request: Fill in the blank: the reported MIC of CN[C@H](CC(C)C)C(=O)N[C@H]1C(=O)N[C@@H](CC(N)=O)C(=O)N[C@H]2C(=O)N[C@H]3C(=O)N[C@H](C(=O)N[C@H](C(=O)O)c4cc(O)cc(O)c4-c4cc3ccc4O)[C@H](O[C@H]3C[C@](C)(NCc4ccc(Cl)cc4)[C@@H](O)[C@H](C)O3)c3ccc(cc3)Oc3cc2cc(c3O[C@@H]2O[C@H](CO)[C@@H](O)[C@H](O)[C@H]2O[C@H]2C[C@](C)(N)[C@@H](O)[C@H](C)O2)Oc2ccc(cc2Cl)[C@H]1O is ____.
Result: .5 µg/mL

Request: MIC lookup needed for CN[C@H](CC(C)C)C(=O)N[C@H]1C(=O)N[C@@H](CC(N)=O)C(=O)N[C@H]2C(=O)N[C@H]3C(=O)N[C@H](C(=O)N[C@H](C(=O)O)c4cc(O)cc(O)c4-c4cc3ccc4O)[C@H](O[C@H]3C[C@](C)(N)[C@@H](O)[C@H](C)O3)c3ccc(cc3)Oc3cc2cc(c3O[C@@H]2O[C@H](CO)[C@@H](O)[C@H](O)[C@H]2O[C@H]2C[C@](C)(NCc3ccccc3)[C@@H](O)[C@H](C)O2)Oc2ccc(cc2Cl)[C@H]1O , thanks.
Result: .5 µg/mL

###

Let's look at some molecules and their measured MIC.
Tested on: Staphylococcus aureus S13E
Type: cell-based

Solved cases (4 shown):
CCCCCN(C)[C@H](CC(C)C)C(=O)N[C@H]1C(=O)N[C@@H](CC(N)=O)C(=O)N[C@H]2C(=O)N[C@H]3C(=O)N[C@H](C(=O)N[C@H](C(=O)O)c4cc(O)cc(O)c4-c4cc3ccc4O)[C@H](O[C@H]3C[C@](C)(N)[C@@H](O)[C@H](C)O3)c3ccc(c(Cl)c3)Oc3cc2cc(c3O[C@@H]2O[C@H](CO)[C@@H](O)[C@H](O)[C@H]2O[C@H]2C[C@](C)(N)[C@@H](O)[C@H](C)O2)Oc2ccc(cc2Cl)[C@H]1O [Compound 35]; .25 µg/mL
CNC(CC(C)C)C(=O)NC1C(=O)NC(CC(N)=O)C(=O)NC2C(=O)NC3C(=O)NC(C(=O)NC(C(=O)O)c4cc(O)cc(O)c4-c4cc3ccc4O)C(OC3CC(C)(N)C(O)C(C)O3)c3ccc(c(Cl)c3)Oc3cc2cc(c3OC2OC(CO)C(O)C(O)C2OC2CC(C)(NCc3ccccc3)C(O)C(C)O2)Oc2ccc(cc2Cl)C1O (centres unmarked) [Compound 51]; .25 µg/mL
CN[C@H](CC(C)C)C(=O)N[C@H]1C(=O)N[C@@H](CC(N)=O)C(=O)N[C@H]2C(=O)N[C@H]3C(=O)N[C@H](C(=O)N[C@H](C(=O)O)c4cc(O)cc(O)c4-c4cc3ccc4O)[C@H](O[C@H]3C[C@](C)(N)[C@@H](O)[C@H](C)O3)c3ccc(cc3)Oc3cc2cc(c3O[C@@H]2O[C@H](CO)[C@@H](O)[C@H](O)[C@H]2O[C@H]2C[C@](C)(NCc3ccccc3)[C@@H](O)[C@H](C)O2)Oc2ccc(cc2Cl)[C@H]1O [Compound 10]; .125 µg/mL
CNC(CC(C)C)C(=O)NC1C(=O)NC(CC(N)=O)C(=O)NC2C(=O)NC3C(=O)NC(C(=O)NC(C(=O)O)c4cc(O)cc(O)c4-c4cc3ccc4O)C(OC3CC(C)(NCc4ccccc4)C(O)C(C)O3)c3ccc(c(Cl)c3)Oc3cc2cc(c3OC2OC(CO)C(O)C(O)C2O)Oc2ccc(cc2Cl)C1O (centres unmarked) [Compound 76]; .25 µg/mL

We now examine a further molecule.
Request: Entry CCCCCNC1(C)CC(OC2c3ccc(c(Cl)c3)Oc3cc4cc(c3OC3OC(CO)C(O)C(O)C3O)Oc3ccc(cc3Cl)C(O)C(NC(=O)C(CC(C)C)NC)C(=O)NC(CC(N)=O)C(=O)NC4C(=O)NC3C(=O)NC2C(=O)NC(C(=O)O)c2cc(O)cc(O)c2-c2cc3ccc2O)OC(C)C1O (centres unmarked) [Compound 77] has what MIC?
Result: .5 µg/mL

###

Tested on: Enterococcus faecalis 2041
Experimental Protocol: MIC, standard agar-dilution assay
Type: cell-based
Entries and their MIC values follow.

These solved cases illustrate the format of a correct answer.
CNC(CC(C)C)C(=O)NC1C(=O)NC(CC(N)=O)C(=O)NC2C(=O)NC3C(=O)NC(C(=O)NC(C(=O)O)c4cc(O)cc(O)c4-c4cc3ccc4O)C(OC3CC(C)(N)C(O)C(C)O3)c3ccc(c(Cl)c3)Oc3cc2cc(c3OC2OC(CO)C(O)C(O)C2OC2CC(C)(NCc3ccc(Cl)cc3)C(O)C(C)O2)Oc2ccc(cc2Cl)C1O (stereo not shown); .25 µg/mL
CNC(CC(C)C)C(=O)NC1C(=O)NC(CC(N)=O)C(=O)NC2C(=O)NC3C(=O)NC(C(=O)NC(C(=O)O)c4cc(O)cc(O)c4-c4cc3ccc4O)C(OC3CC(C)(N)C(O)C(C)O3)c3ccc(c(Cl)c3)Oc3cc2cc(c3OC2OC(CO)C(O)C(O)C2OC2CC(C)(NCc3cccc(Cl)c3)C(O)C(C)O2)Oc2ccc(cc2Cl)C1O (stereo not shown); .25 µg/mL

Request: For the compound CCCCCCCCCCN[C@@]1(C)C[C@H](O[C@H]2[C@H](Oc3c4cc5cc3Oc3ccc(cc3Cl)[C@@H](O[C@H]3C[C@](C)(N)[C@@H](O)[C@H](C)O3)[C@@H]3NC(=O)[C@H](NC(=O)[C@@H]5NC(=O)[C@H](CC(N)=O)NC(=O)[C@H](NC(=O)[C@@H](CC(C)C)NC)[C@H](O)c5ccc(c(Cl)c5)O4)c4ccc(O)c(c4)-c4c(O)cc(O)cc4[C@@H](C(=O)O)NC3=O)O[C@H](CO)[C@@H](O)[C@@H]2O)O[C@@H](C)[C@@H]1O , what MIC is on record?
Result: .5 µg/mL

Request: MIC for CCCCCCCCN[C@@]1(C)C[C@H](O[C@H]2[C@H](Oc3c4cc5cc3Oc3ccc(cc3Cl)[C@@H](O[C@H]3C[C@](C)(N)[C@@H](O)[C@H](C)O3)[C@@H]3NC(=O)[C@H](NC(=O)[C@@H]5NC(=O)[C@H](CC(N)=O)NC(=O)[C@H](NC(=O)[C@@H](CC(C)C)NC)[C@H](O)c5ccc(c(Cl)c5)O4)c4ccc(O)c(c4)-c4c(O)cc(O)cc4[C@@H](C(=O)O)NC3=O)O[C@H](CO)[C@@H](O)[C@@H]2O)O[C@@H](C)[C@@H]1O ?
Result: .25 µg/mL

###

Tested on: Staphylococcus epidermidis EPI270
Experimental Protocol: MIC, standard agar-dilution assay
Type: cell-based
Property Measured: MIC

Examples with answers:
CN[C@H](CC(C)C)C(=O)N[C@H]1C(=O)N[C@@H](CC(N)=O)C(=O)N[C@H]2C(=O)N[C@H]3C(=O)N[C@H](C(=O)N[C@H](C(=O)O)c4cc(O)cc(O)c4-c4cc3ccc4O)[C@H](O[C@H]3C[C@](C)(NCc4ccc(Cl)cc4)[C@@H](O)[C@H](C)O3)c3ccc(cc3)Oc3cc2cc(c3O[C@@H]2O[C@H](CO)[C@@H](O)[C@H](O)[C@H]2O[C@H]2C[C@](C)(N)[C@@H](O)[C@H](C)O2)Oc2ccc(cc2Cl)[C@H]1O; .5 µg/mL
CCCCCN(C)[C@H](CC(C)C)C(=O)N[C@H]1C(=O)N[C@@H](CC(N)=O)C(=O)N[C@H]2C(=O)N[C@H]3C(=O)N[C@H](C(=O)N[C@H](C(=O)O)c4cc(O)cc(O)c4-c4cc3ccc4O)[C@H](O[C@H]3C[C@](C)(N)[C@@H](O)[C@H](C)O3)c3ccc(cc3)Oc3cc2cc(c3O[C@@H]2O[C@H](CO)[C@@H](O)[C@H](O)[C@H]2O[C@H]2C[C@](C)(N)[C@@H](O)[C@H](C)O2)Oc2ccc(cc2Cl)[C@H]1O; .5 µg/mL

We now examine a further molecule.
Request: I am curious: what MIC value has been reported for CNC(CC(C)C)C(=O)NC1C(=O)NC(CC(N)=O)C(=O)NC2C(=O)NC3C(=O)NC(C(=O)NC(C(=O)O)c4cc(O)cc(O)c4-c4cc3ccc4O)C(OC3CC(C)(NCc4ccccc4)C(O)C(C)O3)c3ccc(cc3)Oc3cc2cc(c3O)Oc2ccc(cc2Cl)C1O (stereo not drawn) ?
Result: .25 µg/mL
